# Test Details: in vitro
# Study Conditions: human, hela cells, % viability
So I've got a bunch of molecules here, and I need their viability at 28.5 h, 10 µM values.
Numbers only, in %.

Take a look at these entries with their results.
CCOc1ccsc1C(=O)N1CCN(CC)CC1 : 125
COc1ccc(CCNC(=O)[C@@H]2Cc3c([nH]c4ccccc34)[C@]3(CCN(Cc4ccccc4)C3)N2)cc1OC : 114
CCC(C)NC(=O)c1ccc2nccnc2c1 (stereo not shown) : 89.4
COc1ccc2nc(C)c(CCC(=O)O)c(O)c2c1 : 98.8
COc1ccc2[nH]cc(CCNC(=O)c3ccc([N+](=O)[O-])c(C)c3)c2c1 : 100
Cc1ccc(NC(=O)c2cnc3ccc(C)cn3c2=O)cc1 : 90.2
Cc1ccc(S(=O)(=O)N2CCN(C(=O)c3ccco3)CC2)cc1 : 92.8
N#Cc1ccccc1CSc1nc2ccc(NC(=O)c3ccc([N+](=O)[O-])cc3)cc2s1 : 90.7

Look up viability at 28.5 h, 10 µM for the entries below, preserving their order.
1. O=C(NCc1ccc(F)cc1)c1cc(Br)cnc1NCc1cccnc1
2. O=C(Cc1csc(-c2ccc(Cl)cc2)n1)NCCN1CCCC1

Reply:
1: 104; 2: 90
